src = patent US10028992B2

Provide the recorded Score for the entries that follow.
- System: α7 integrin promoter
- ASSAY_DETAILS: muscle cell-based assay: α7βgal+/− myoblasts/myotubes, LacZ reporter, β-galactosidase cleavage of FDG
- Set-up: species or system mouse
Answers are plain numbers.

Below: 5 compounds and their reported Score.
COMPOUND | RESULT_NUMBER
Cc1nc2c([nH]1)OC(N)=C(C#N)C21CCN(Cc2ccccc2)CC1 | 43
Br.COc1ccc(C(=O)CN2CCCCC2)cc1 | 42
CNP(=O)(Oc1ccccc1)OC12CC3CC(CC(C3)C1)C2 (stereo not shown) | 42
O=C(O)CCn1cc(/C=C2/NC(=S)N(c3ccccc3)C2=O)c(-c2ccccc2)n1 | 45
O=Cc1cn(Cc2ccc(F)cc2Cl)c2ccccc12 | 42

Hey, can you go through the list below and give me Score for every item?
1. Cc1nn(C(C)(C)C)c(C)c1/C=N/OC(=O)Nc1ccc(Cl)c(Cl)c1
2. O=C(Cn1nc(-c2ccc(Cl)cc2)ccc1=O)N1CCC2(CC1)OCCO2

83
41
